# test description: Cmax in Brown Norway rat plasma administered topically
# Format: ADME, cell-free
# measurement conditions: topical or ocular
quantity kind: Cmax
The answer consists of two parts: a number and, after it, its unit.

Would you kindly share the measured Cmax for CCOC(=O)c1c(C)cc2nc(COC(=O)NCCO)n(-c3ccccc3S(=O)(=O)NC)c(=O)c2c1C ?
9 nM

---

# test description: Tmax in Brown Norway rat cornea administered topically
# Type: ADME, tissue-based
# measurement conditions: topical or ocular
quantity kind: Tmax (min)
Could you give me the number in min? Just the number is fine.

Would you kindly share the measured Tmax for CCOC(=O)c1c(C)cc2nc(COC(=O)NCCO)n(-c3ccccc3S(=O)(=O)NC)c(=O)c2c1C ?
4.98
